Data provenance: patent US20100022483A1

Measured MIC, listed per entry.
Tested on: gram negative bacteria
Assay: In vitro anti-bacterial activity assay (broth dilution MIC), gram negative bacteria
Type: cell-based, E. coli
Settings: Escherichia coli, 18 h, E. coli MG 1655; read-out: Median MIC's G− E. coli MG 1655
RECORDED METRIC: MIC

In [3]: df
Out[3]:
                         compound_structure  value_reported
0  CN(C)CCNC(=O)c1cccc(-c2cc(N(C)C)c3c(c2O)C(=O)C2=C(O)[C@]4(O)C(=O)C(C(N)=O)=C(O)[C@@H](N(C)C)[C@@H]4C[C@@H]2C3)c1        64 µg/mL
1  COCCCOCCN(C)Cc1cccc(-c2ccc(O)c3c2C[C@H]2C[C@H]4[C@H](N(C)C)C(O)=C(C(N)=O)C(=O)[C@@]4(O)C(O)=C2C3=O)c1         8 µg/mL
2  CN(C)[C@@H]1C(O)=C(C(N)=O)C(=O)[C@@]2(O)C(O)=C3C(=O)c4c(O)ccc(-c5ccc(CNCc6cccnc6)o5)c4C[C@H]3C[C@@H]12         4 µg/mL
